Data credit: patent US11814435B2

Target: T1, hBCMA (human BCMA) (Homo sapiens, UniProt Q02223)
T1 sequence (Q02223 1-184): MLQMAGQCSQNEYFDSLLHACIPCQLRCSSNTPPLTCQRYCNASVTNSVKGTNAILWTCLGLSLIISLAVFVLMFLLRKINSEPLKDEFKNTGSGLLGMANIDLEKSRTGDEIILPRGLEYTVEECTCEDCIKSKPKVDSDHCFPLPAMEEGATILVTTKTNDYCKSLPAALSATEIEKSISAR
Assay: Kinetics and affinity of hBCMA/human IgG interactions by SPR (Bio-Rad Proteon XPR36)
Format: binding
Details: human BCMA, 37° C.
Exercise: for every item that follows, state its recorded kd Human.
Hi! Could you send only the number? It should be in s⁻¹, unit omitted.

Task: kd Human lookup needed for A02_Rd4_0.6 nM_C18: anti-BCMA antibody (antibody, V domains shown) VH: EVQLLESGGGLVQPGGSLRLSCAASGFTFSSYAMNWVRQAPGKGLEWVSAVLDSGGSTYYADSVKGRFTISRDNSKNTLYLQMNSLRAEDTAVYYCARYWPMSLWGQGTLVTVSS VL: EIVLTQSPGTLSLSPGERATLSCRASQSVSELYLAWYQQKPGQAPRLLMYDASIRATGIPDRFSGSGSGTDFTLTISRLEPEDFAVYYCQQYFGWPLTFGQGTKVEIK , thanks.
Result: 0.000229

Task: kd Human lookup needed for C01_Rd4_0.6 nM_C03: anti-BCMA antibody (antibody, V domains shown) VH: EVQLLESGGGLVQPGGSLRLSCAASGFTFSSYPMSWVRQAPGKGLEWVSAIGGSGGSLPYADSVKGRFTISRDNSKNTLYLQMNSLRAEDTAVYYCARYWPMDSWGQGTLVTVSS VL: EIVLTQSPGTLSLSPGERATLSCRASCDVSSTYLAWYQQKPGQAPRLLIYDASSRAPGIPDRFSGSGSGTDFTLTISRLEPEDFAVYYCQQYMRSPLTFGQGTKVEIK , thanks.
Result: 0.015

Task: kd Human lookup needed for P5A2_VHVL: anti-BCMA antibody (antibody, V domains shown) VH: EVQLLESGGGLVQPGGSLRLSCAASGFTFSSYAMNWVRQAPGKGLEWVSAISDSGGSTYYADSVKGRFTISRDNSKNTLYLQMNSLRAEDTAVYYCARYWPMDIWGQGTLVTVSS VL: EIVLTQSPGTLSLSPGERATLSCRASQSVSSSYLAWYQQKPGQAPRLLMYDASIRATGIPDRFSGSGSGTDFTLTISRLEPEDFAVYYCQQYGSWPLTFGQGTKVEIK , thanks.
Result: 0.0387
